# test target: COX‐2 (Mus musculus, UniProt Q05769)
# Construct: endogenous in cells; host or cells: J774 murine monocyte/macrophage cell line, LPS-stimulated
# Sequence (Q05769 18-604): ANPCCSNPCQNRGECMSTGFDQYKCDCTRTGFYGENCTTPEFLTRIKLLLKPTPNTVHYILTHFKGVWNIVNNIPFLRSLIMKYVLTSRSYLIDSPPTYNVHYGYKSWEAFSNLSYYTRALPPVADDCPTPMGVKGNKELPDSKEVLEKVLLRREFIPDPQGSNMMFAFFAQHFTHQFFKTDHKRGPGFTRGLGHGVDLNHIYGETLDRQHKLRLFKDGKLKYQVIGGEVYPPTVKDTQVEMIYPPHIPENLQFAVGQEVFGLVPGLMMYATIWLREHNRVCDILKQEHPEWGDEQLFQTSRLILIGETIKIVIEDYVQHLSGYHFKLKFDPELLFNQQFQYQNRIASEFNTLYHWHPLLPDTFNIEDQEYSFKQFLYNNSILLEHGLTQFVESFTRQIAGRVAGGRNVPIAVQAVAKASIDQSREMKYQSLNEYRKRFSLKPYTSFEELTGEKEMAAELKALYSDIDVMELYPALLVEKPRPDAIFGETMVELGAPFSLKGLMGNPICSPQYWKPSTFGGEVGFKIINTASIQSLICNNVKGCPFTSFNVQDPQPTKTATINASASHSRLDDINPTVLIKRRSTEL
# experiment summary: COX‐2 inhibition of PGE2 production, LPS-stimulated J774 murine macrophage assay
# Assay type: cell-based
# experimental parameters: J774 cells, LPS 10 μg/mL 24 h, PGE2 by EIA, mean of three experiments

compound: COc1cc(/C=C/C(=O)O)ccc1OCc1cn(CCOCCOCCOCCOCCOCCOCCC(=O)OCCOCCc2cc(-c3ccc(S(C)(=O)=O)cc3)n(-c3ccc(F)cc3)c2C)nn1 [Compound 13b]
result qualifier: =
IC50 [nM]: 50
--
compound: Cc1c(CCOCCOC(=O)CCOCCOCCOCCOCCOCCOCCN=[N+]=[N-])cc(-c2ccc(S(C)(=O)=O)cc2)n1-c1ccc(F)cc1
result qualifier: =
IC50 [nM]: 15
--
compound: Cc1c(CCOCCOCCOCCOCCOCCOCCN=[N+]=[N-])cc(-c2ccc(S(C)(=O)=O)cc2)n1-c1ccc(F)cc1
result qualifier: =
IC50 [nM]: 500
--
compound: COc1cc(/C=C/C(=O)O)ccc1OCc1cn(CCOCCOCCOCCOCCOCCOCCc2cc(-c3ccc(S(C)(=O)=O)cc3)n(-c3ccc(F)cc3)c2C)nn1 [Compound 12b]
result qualifier: >
IC50 [nM]: 10000
